Recorded values, source paper doi:10.1101/2023.06.15.545071.

measured.on: ETR1 1-598
assay.explanation: MST
measurement.label: Kd

> print(dat)
                                     binder  measurement.label   result
1  MKPRLCFNFRRRSISPCYISISYLLVAKLFKLFKIH [synthetic full length PLS peptide PLS(FL)]                 Kd  2920 nM
